The entries below are paired with their reported IC50 (nM), Ca2+ influx by 200 nM hCCL1.
TEST_TARGET: human CCR8 (human, UniProt P51685 1-355)
Sequence (P51685 whole entry): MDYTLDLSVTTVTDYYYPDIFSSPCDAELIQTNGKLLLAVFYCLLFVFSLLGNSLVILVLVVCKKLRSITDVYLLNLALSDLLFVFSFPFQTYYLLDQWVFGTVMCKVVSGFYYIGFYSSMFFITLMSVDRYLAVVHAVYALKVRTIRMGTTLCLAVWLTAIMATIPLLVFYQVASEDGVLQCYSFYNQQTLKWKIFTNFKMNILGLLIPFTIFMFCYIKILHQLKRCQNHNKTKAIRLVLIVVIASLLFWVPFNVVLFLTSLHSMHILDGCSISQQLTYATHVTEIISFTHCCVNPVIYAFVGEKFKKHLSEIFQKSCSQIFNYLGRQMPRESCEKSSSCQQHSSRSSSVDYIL
EXPERIMENTAL_DETAILS: cell-based or functional assay
Report as: number unit

Before answering, review these 4 worked examples.
2C7 (antibody, V domains shown, mouse hybridoma antibody) VH: QVQLKQSGPSLVQPSQSLSITCTVSGFSLTAYGVHWIRQSPGKGQEWLGVIWRGGSTDYNAAFMSRLTITKDNSKSQVFFKMNSLQADDTAIYYCAKKGGSYAMDYWGQGTSVTVSS VL: DVVLTQTPLSLPVSLGGQASISCRSSQSLVHSNGNTYLHWYLQKPGQSPKLLIYKVSNRFSGVPDRFSGSGSGTDFTLKISRVEAEDLGVYFCSQSTQVPLTFGAGTKLELKR: 1.19 nM
8F7 (antibody, V domains shown, mouse hybridoma antibody) VH: EVQLVESGGRLVQPKRSLKLSCAASGFTFNPYAMYWIRQAPGQGLEWVARIRSKSNNYATYYADSVKDRFTISRDDSQSMLYLQMNNLKTEDTAMYYCVRGHQGTMDYWGQGTSVTVSS VL: DIVMTQAAPSVPVTPGESVSISCRSSKSLLHSNGNTYLYWFLQRPGQSPQLLTYRMSNLASGVPDRFSGSGSGTAFTLRISRVEAEDVGVYYCMQHLEYPFTFGGGTKLEIKR: 3.03 nM
1H4 (antibody, V domains shown, mouse hybridoma antibody) VH: EVQLVESGGRLVQPKGSLKLSCAASGFTFNTYAMYWIRQAPGKGLEWVARIRSKSNNYATYYADSVKDRFTISRDDSQSMLYLQMNNLKTEDTAMYYCVRARFYYSDYGYAMDYWGQGTSVTVSS VL: DIVMTQAAPSVPVTPGESVSISCRSSKSLLHSNGNTYLYWFLQRPGQSPQLLIYRMSNLASGVPDRFSASGSGTAFTLRISRVEAEDVGVYYCMQHLEYPLTFGAGTKLELKR: 0.36 nM
10A11 (antibody, V domains shown, mouse hybridoma antibody; also called m10A11; clone No. 10A11) VH: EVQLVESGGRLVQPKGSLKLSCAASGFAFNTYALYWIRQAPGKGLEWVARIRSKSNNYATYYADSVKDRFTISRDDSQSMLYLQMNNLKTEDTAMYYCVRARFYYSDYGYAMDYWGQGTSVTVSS VL: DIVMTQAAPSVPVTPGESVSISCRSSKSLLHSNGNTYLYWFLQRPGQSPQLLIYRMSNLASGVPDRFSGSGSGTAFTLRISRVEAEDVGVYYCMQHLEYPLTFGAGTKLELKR: 0.23 nM

Report measured IC50 (nM), Ca2+ influx by 200 nM hCCL1; entry is 2-7B (antibody, V domains shown) VH: EVQLVESDGGLVQPGRSLKLSCAASGFTFSDYYMAWVRQAPTKGLEWVATITYDVYSTYYRDSVKGRFTISRDNAKSTLYLQMDSLRSEDTATYYCARHGGDGYNSGNWFAYWGQGTLVTVSS VL: DIVLTQSPALAVSLGQRATISCRASQSVSISRYNIMHWYQQKPGQQPKLLIYRASNLASGIPARFSGSGSGTDFTLTINPVQADDIATYYCQQSRESPPTFGGGTKLELKR 0.23 nM
